Tested on: Vero E6 infected with SARS-CoV-2
assayProtocol: inhibition of SARS-CoV-2 cytopathic effect; higher = more antiviral protection, active = above 15
experimentalSetup: 833.33 nM; 48 h
Please respond with reported inhibition of SARS-CoV-2 cytopathic effect for every item in the list.
# value in %; strip the unit string

[in] Fill blank: measured inhibition of SARS-CoV-2 cytopathic effect of the compound `Cc1nc(N)sc1-c1ccnc(Nc2ccc(N3CCOCC3)cc2)n1` is ____.
[out] 2.13

[in] Fill blank: measured inhibition of SARS-CoV-2 cytopathic effect of the compound `Nc1nc(N)c(N=O)c(OCC2CCCCC2)n1` is ____.
[out] 5.81

[in] Fill blank: measured inhibition of SARS-CoV-2 cytopathic effect of the compound CCCC(=O)N1CCCN(c2nc(N)c3cc(OC)c(OC)cc3n2)CC1 [bunazosin] is ____.
[out] 0.02

[in] Fill blank: measured inhibition of SARS-CoV-2 cytopathic effect of the compound O=C(O)c1cccnc1C(=O)O [quinolinic-acid] is ____.
[out] -1.65

[in] Fill blank: measured inhibition of SARS-CoV-2 cytopathic effect of the compound O=C(NCCN1CCN(c2ncccn2)CC1)C12CC3CC(CC(C3)C1)C2 [adatanserin] is ____.
[out] 2.26

[in] Fill blank: measured inhibition of SARS-CoV-2 cytopathic effect of the compound CN1C(=O)N(C)C2C1N(C)C(=O)N2C (stereo not given) [mebicar] is ____.
[out] -1.23

[in] Fill blank: measured inhibition of SARS-CoV-2 cytopathic effect of the compound N[C@H](CO)C(=O)O [D-serine] is ____.
[out] -1.45

[in] Fill blank: measured inhibition of SARS-CoV-2 cytopathic effect of the compound `O=C(O)C1=CCCN(CCON=C(c2ccccc2)c2ccccc2)C1` is ____.
[out] 0.86

[in] Fill blank: measured inhibition of SARS-CoV-2 cytopathic effect of the compound `N[C@H]1CCN(O)C1=O` is ____.
[out] -1.54

[in] Fill blank: measured inhibition of SARS-CoV-2 cytopathic effect of the compound NC[C@@H](O)CC(=O)O [aminohydroxybutyric-acid] is ____.
[out] -2.28

[in] Fill blank: measured inhibition of SARS-CoV-2 cytopathic effect of the compound `O=C(CN1C2=NCCN2c2ccccc21)c1ccc(-c2ccccc2)cc1` is ____.
[out] -0.84

[in] Fill blank: measured inhibition of SARS-CoV-2 cytopathic effect of the compound CC(C)(C)c1cc(C=C(C#N)C#N)cc(C(C)(C)C)c1O [tyrphostin-A9] is ____.
[out] 8.55

[in] Fill blank: measured inhibition of SARS-CoV-2 cytopathic effect of the compound N=C(N)NC(=O)Cc1c(Cl)cccc1Cl [guanfacine] is ____.
[out] 1.89

[in] Fill blank: measured inhibition of SARS-CoV-2 cytopathic effect of the compound COc1ccc(-c2nc3cc(C4=NNC(=O)CC4C)ccc3[nH]2)cc1 (stereo not given) [pimobendan] is ____.
[out] -1.51

[in] Fill blank: measured inhibition of SARS-CoV-2 cytopathic effect of the compound CN(C)C/C=C/C(=O)Nc1cc2c(Nc3ccc(F)c(Cl)c3)ncnc2cc1O[C@H]1CCOC1 [afatinib] is ____.
[out] -8.01

[in] Fill blank: measured inhibition of SARS-CoV-2 cytopathic effect of the compound `Nc1ccc(-c2nc3ccc(-c4nc5ccc(N)cc5[nH]4)cc3[nH]2)cc1` is ____.
[out] 2.79

[in] Fill blank: measured inhibition of SARS-CoV-2 cytopathic effect of the compound O=C(O)c1cc(=O)c2c(OCC(O)COc3cccc4oc(C(=O)O)cc(=O)c34)cccc2o1 [cromoglicic-acid] is ____.
[out] 0.49

[in] Fill blank: measured inhibition of SARS-CoV-2 cytopathic effect of the compound c1ccc(C[C@H](c2ccccc2)N2CCCCC2)cc1 (racemic) [1-(1,2-diphenylethyl)piperidine-(+/-)] is ____.
[out] 0.92

[in] Fill blank: measured inhibition of SARS-CoV-2 cytopathic effect of the compound CCOC(=O)Nc1ccc(NCc2ccc(F)cc2)cc1N [Retigabine] is ____.
[out] -2.18

[in] Fill blank: measured inhibition of SARS-CoV-2 cytopathic effect of the compound C/C(=C\C(=O)OCCCCCCCCC(=O)O)C[C@@H]1OC[C@H](C[C@@H]2O[C@H]2[C@@H](C)[C@H](C)O)[C@@H](O)[C@H]1O [mupirocin] is ____.
[out] 2.09
